Provenance of the data: the supplement of paper PMC10201428

B1: library; a variant is named by its letters at N, in order (parent)
chain: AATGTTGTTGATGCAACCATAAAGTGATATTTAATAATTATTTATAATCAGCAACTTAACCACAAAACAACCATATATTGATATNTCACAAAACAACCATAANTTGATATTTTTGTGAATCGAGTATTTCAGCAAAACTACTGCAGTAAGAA

variants of: B1; assay: relative integration efficiency (T-RL orientation) vs wild-type transposon end (log2 (normalized fold change)); transposon end mutated: left end; higher = more efficient transposition; conditions: with VchCAST RNA-guided transposition machinery (E. coli BL21(DE3) host, lacZ target)
Decide using relative integration efficiency (log2): a value greater than or equal to -0.02 is met, a smaller one is not met.

See these solved cases before continuing.
CG A33T A34T: met
CG A69G: not met
CA A22T G24T T31C A33C T104A T110A T113A: not met

Task: Can CA A16C G24T T32G A33C A96C T110A T113A be said to have relative integration efficiency (log2) at or above -0.02?
Output: not met

Task: Can CG T79G G80T A81C T82G be said to have relative integration efficiency (log2) at or above -0.02?
Output: not met

Task: Can CG T57C be said to have relative integration efficiency (log2) at or above -0.02?
Output: not met

Task: Can CG A62T C63G be said to have relative integration efficiency (log2) at or above -0.02?
Output: met

Task: Can CG G115C be said to have relative integration efficiency (log2) at or above -0.02?
Output: met

Task: Can CG A23G be said to have relative integration efficiency (log2) at or above -0.02?
Output: met

Task: Can CG T114C be said to have relative integration efficiency (log2) at or above -0.02?
Output: not met

Task: Can CG A50T G51C be said to have relative integration efficiency (log2) at or above -0.02?
Output: not met
